measuredTarget: Fyn (UniProt P06241)
Sequence (P06241 whole entry, looked up): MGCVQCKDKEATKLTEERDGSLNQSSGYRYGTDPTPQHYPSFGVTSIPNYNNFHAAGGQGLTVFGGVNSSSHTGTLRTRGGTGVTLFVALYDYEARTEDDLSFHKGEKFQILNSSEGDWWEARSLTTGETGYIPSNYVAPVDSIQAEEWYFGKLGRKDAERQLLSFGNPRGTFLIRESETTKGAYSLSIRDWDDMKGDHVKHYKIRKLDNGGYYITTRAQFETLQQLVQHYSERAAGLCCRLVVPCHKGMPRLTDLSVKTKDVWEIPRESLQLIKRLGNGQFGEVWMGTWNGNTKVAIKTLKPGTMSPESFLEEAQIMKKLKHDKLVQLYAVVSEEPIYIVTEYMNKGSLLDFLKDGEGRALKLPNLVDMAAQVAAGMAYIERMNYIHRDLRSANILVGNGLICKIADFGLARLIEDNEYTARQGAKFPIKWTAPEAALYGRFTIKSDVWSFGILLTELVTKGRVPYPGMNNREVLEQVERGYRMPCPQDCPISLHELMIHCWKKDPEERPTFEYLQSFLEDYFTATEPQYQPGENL
testMethodNotes: phosphorylation enrichment, bacterial display (enrichment ratio); higher = better substrate or ligand; peptides without Tyr show the background;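 note: 11-residue human phosphosite peptides and single-mutation variants displayed on the E. coli surface, counted by deep sequencing, each peptide's frequency after selection divided by its frequency in the unselected input library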;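 note: frequency after pTyr selection over input frequency; kinase dosed for 20-30% of maximal phosphorylation in three min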
measuredParameter: phosphorylation enrichment
# respond with the number and nothing more

Field: example entries. Status: answers known.
// phosphorylation enrichment value for GSETPYMDRTP [ESS2_Y335_V336M] : 0.344

// phosphorylation enrichment value for PELINYHQPNS [BTK_Y361_H364P] : 0.597

// phosphorylation enrichment value for RAFRHYLLKQK [SCN2A_Y1919_R1918H_YF] : 1.16

Others:
// phosphorylation enrichment value for CDYKKYGKGLR [ZNF445_Y433_Y428C] : 0.364

* * *

System: c-Abl (mouse)
testMethodNotes: phosphorylation enrichment, bacterial display (enrichment ratio); higher = better substrate or ligand; peptides without Tyr show the background
measuredParameter: phosphorylation enrichment

Result for EFFENYIEELK [PARP4_Y218_F215Y_YF] , tested on c-Abl (mouse), phosphorylation enrichment: 0.869

Result for KGLMPYGQPRP [SRRT_Y798_Q793K] , tested on c-Abl (mouse), phosphorylation enrichment: 0.455

Result for CKLCQYFLDHL [ATRX_Y1849_Y1847C_YF] , tested on c-Abl (mouse), phosphorylation enrichment: 0.89

Result for FHKALYTVRSY [PDE6C_Y266] , tested on c-Abl (mouse), phosphorylation enrichment: 0.775

Result for DDHFTYSRFPW [LY75_Y888_YF] , tested on c-Abl (mouse), phosphorylation enrichment: 1.66

Result for LDPMVYMNDTS [PTK2B_Y834_K838T] , tested on c-Abl (mouse), phosphorylation enrichment: 1.32

Others:
Result for QEIATYRRLQE [KRT14_Y415_L419Q] , tested on c-Abl (mouse), phosphorylation enrichment: 1.1

* * *

measuredTarget: Jak2 (UniProt O60674)
Sequence (O60674 whole entry, looked up): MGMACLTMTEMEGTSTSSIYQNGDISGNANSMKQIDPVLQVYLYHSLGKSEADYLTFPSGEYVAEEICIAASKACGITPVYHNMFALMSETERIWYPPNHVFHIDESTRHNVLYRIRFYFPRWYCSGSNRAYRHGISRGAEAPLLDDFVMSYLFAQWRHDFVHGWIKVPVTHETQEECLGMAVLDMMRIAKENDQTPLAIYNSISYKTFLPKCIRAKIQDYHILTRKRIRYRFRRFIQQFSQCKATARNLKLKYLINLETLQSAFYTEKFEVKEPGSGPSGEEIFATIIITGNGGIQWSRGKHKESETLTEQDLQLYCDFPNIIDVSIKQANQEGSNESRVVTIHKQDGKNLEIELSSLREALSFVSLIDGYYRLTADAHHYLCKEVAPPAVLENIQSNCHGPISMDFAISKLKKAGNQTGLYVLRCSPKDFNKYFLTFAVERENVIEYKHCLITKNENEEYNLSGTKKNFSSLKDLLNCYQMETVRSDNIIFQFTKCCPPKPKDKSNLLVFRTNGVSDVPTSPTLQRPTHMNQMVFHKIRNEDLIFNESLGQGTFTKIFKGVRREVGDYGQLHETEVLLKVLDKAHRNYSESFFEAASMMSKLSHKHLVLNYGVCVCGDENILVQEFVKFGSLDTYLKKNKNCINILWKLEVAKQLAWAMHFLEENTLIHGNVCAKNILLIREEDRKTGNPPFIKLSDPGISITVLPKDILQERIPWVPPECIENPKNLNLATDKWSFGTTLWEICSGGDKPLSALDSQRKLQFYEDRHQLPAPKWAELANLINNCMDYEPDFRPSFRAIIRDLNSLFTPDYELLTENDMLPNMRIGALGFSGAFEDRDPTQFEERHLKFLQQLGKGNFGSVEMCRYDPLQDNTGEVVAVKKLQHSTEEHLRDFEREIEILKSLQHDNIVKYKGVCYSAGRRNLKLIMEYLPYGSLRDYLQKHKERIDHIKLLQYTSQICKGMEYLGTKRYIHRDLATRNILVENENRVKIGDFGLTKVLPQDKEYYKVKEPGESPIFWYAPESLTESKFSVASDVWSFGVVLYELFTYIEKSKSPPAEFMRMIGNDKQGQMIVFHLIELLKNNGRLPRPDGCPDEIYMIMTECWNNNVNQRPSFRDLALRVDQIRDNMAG
testMethodNotes: phosphorylation enrichment, bacterial display (enrichment ratio); higher = better substrate or ligand; peptides without Tyr show the background
Overview of reported phosphorylation enrichment across a group of sequences:
# respond with the number and nothing more

// phosphorylation enrichment value for HLQQSNLPRGT [TEX45_Y396_Y396N] : 0.689

// phosphorylation enrichment value for LITTLYIDFLG [KCNQ1_Y267_G269D] : 1.39

// phosphorylation enrichment value for WRPFGYPRRRR [BCS1L_Y181] : 0.494

API: the following record is the query input.
// phosphorylation enrichment value for TTKGAYSLSIR [YES1_Y194] : 0.614

* * *

Tested on: AncSZ
testMethodNotes: phosphorylation enrichment, bacterial display (enrichment ratio); higher = better substrate or ligand; peptides without Tyr show the background
Response key: 1 means phosphorylation enrichment >= 0.9; 0 means phosphorylation enrichment < 0.9.

Reference set, count: 3
Enquiry: Has HNLFSYPTKFE [MYO3A_Y1396_H1400Y_YF] a recorded phosphorylation enrichment greater than or equal to 0.9?
Return: 0

Enquiry: Has VRFMEYETQVK [TARDBP_Y155_T153M] a recorded phosphorylation enrichment greater than or equal to 0.9?
Return: 1

Enquiry: Has PFAEPYADFGG [APBA1_Y187_S184A_YF] a recorded phosphorylation enrichment greater than or equal to 0.9?
Return: 1

Others:
Enquiry: Has FSTDFYRVGGH [NTRK2_Y707_YF] a recorded phosphorylation enrichment greater than or equal to 0.9?
Return: 0

Enquiry: Has GHNDVYISEHV [GRIN2A_Y1423] a recorded phosphorylation enrichment greater than or equal to 0.9?
Return: 0

Enquiry: Has FGYPGYQCKHY [TIMP3_Y177_S179C] a recorded phosphorylation enrichment greater than or equal to 0.9?
Return: 0

Enquiry: Has MLEVPYVDHNS [F10_Y384_R387H] a recorded phosphorylation enrichment greater than or equal to 0.9?
Return: 1

Enquiry: Has VGQRPYRPLPE [REEP3_Y170_Q171R] a recorded phosphorylation enrichment greater than or equal to 0.9?
Return: 0

Enquiry: Has AFSLKYEQQTQ [SYTL4_Y366] a recorded phosphorylation enrichment greater than or equal to 0.9?
Return: 1

Enquiry: Has DAANNYARGHF [TUBA3E_Y103_S101N_YF] a recorded phosphorylation enrichment greater than or equal to 0.9?
Return: 0

Enquiry: Has ARLEFCENEKK [IRS1_Y47_Y47C_YF] a recorded phosphorylation enrichment greater than or equal to 0.9?
Return: 1

Enquiry: Has PRSRSYFSTSI [REPS2_Y462_S463F] a recorded phosphorylation enrichment greater than or equal to 0.9?
Return: 0

Enquiry: Has HVIKFYGACSQ [RET_Y791_L790F] a recorded phosphorylation enrichment greater than or equal to 0.9?
Return: 1

* * *

measuredTarget: EPHB1 (UniProt P54762)
Sequence (P54762 whole entry, looked up): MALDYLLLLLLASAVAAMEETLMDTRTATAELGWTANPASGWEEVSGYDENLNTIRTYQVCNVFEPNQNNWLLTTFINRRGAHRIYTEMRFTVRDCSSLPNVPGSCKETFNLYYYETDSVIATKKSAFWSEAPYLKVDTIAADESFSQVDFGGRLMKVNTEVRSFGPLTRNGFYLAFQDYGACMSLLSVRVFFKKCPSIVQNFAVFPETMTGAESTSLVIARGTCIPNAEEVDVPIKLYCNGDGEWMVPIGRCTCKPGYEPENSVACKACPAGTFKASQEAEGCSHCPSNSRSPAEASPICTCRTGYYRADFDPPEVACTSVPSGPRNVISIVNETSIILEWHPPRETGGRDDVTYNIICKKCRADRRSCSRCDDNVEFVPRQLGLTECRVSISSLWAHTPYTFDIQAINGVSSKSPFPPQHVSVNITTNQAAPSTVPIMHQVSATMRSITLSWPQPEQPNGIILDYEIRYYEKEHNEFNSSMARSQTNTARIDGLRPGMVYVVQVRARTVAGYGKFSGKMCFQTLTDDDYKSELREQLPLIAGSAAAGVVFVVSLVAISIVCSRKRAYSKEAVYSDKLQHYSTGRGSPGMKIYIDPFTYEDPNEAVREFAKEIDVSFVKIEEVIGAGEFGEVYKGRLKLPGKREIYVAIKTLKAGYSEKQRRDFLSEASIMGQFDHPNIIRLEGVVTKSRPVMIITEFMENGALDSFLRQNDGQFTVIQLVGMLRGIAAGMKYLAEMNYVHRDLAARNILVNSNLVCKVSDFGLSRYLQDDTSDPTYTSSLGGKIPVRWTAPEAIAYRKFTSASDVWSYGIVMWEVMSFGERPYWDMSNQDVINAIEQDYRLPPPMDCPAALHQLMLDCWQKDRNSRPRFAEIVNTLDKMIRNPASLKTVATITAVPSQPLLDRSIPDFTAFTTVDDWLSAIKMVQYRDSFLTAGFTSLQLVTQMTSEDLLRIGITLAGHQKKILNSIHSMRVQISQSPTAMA
testMethodNotes: phosphorylation enrichment, bacterial display (enrichment ratio); higher = better substrate or ligand; peptides without Tyr show the background
Overview of reported phosphorylation enrichment across a group of sequences:
# respond with the number and nothing more

Field: example entries. Status: answers known.
Result for SLLLSYFLIKW [NUP160_Y773_P768S_YF] , tested on EPHB1 (UniProt P54762), phosphorylation enrichment: 0.691

Result for LEAVSYSSPFA [RNLS_Y190_R193P_YF] , tested on EPHB1 (UniProt P54762), phosphorylation enrichment: 0.736

Result for VTRANYFIRDE [GNAS_Y339_K338N] , tested on EPHB1 (UniProt P54762), phosphorylation enrichment: 0.541

Others:
Result for AAPAAHDAADT [GAMT_Y27_Y27H] , tested on EPHB1 (UniProt P54762), phosphorylation enrichment: 0.387

Result for EFGFRYELVQY [UGGT2_Y1289_Y1285F] , tested on EPHB1 (UniProt P54762), phosphorylation enrichment: 0.573

Result for DRLASYLDKAR [KRT14_Y129_V133A] , tested on EPHB1 (UniProt P54762), phosphorylation enrichment: 0.297

Result for MDNQEYKDAYT [BRDT_Y331_K336T] , tested on EPHB1 (UniProt P54762), phosphorylation enrichment: 0.598

* * *

Tested on: c-Src
testMethodNotes: phosphorylation enrichment, bacterial display (enrichment ratio); higher = better substrate or ligand; peptides without Tyr show the background
Entries are grouped by phosphorylation enrichment into these classes: low band: < 0.4; middle band: ≥ 0.4 and < 0.6; high band: ≥ 0.6

Reference set, count: 2
Enquiry: Which class is correct for the following sequence? RLLVVYPWTQG [HBG2_Y36_R41G]
Return: low band

Enquiry: Which class is correct for the following sequence? WDSSGYWTPEE [PAPPA2_Y908_C903W]
Return: middle band

Others:
Enquiry: Which class is correct for the following sequence? SVVVLYEPPEV [TP53_Y220_P219L]
Return: high band

Enquiry: Which class is correct for the following sequence? RLAKRYLIWEC [SCN5A_Y694_Q692K]
Return: middle band

Enquiry: Which class is correct for the following sequence? TSQSQYFSFRE [CCDC170_Y323]
Return: high band

* * *

Overview of reported phosphorylation enrichment across a group of sequences:
measuredTarget: EPHB2 (UniProt P29323)
Sequence (P29323 whole entry, looked up): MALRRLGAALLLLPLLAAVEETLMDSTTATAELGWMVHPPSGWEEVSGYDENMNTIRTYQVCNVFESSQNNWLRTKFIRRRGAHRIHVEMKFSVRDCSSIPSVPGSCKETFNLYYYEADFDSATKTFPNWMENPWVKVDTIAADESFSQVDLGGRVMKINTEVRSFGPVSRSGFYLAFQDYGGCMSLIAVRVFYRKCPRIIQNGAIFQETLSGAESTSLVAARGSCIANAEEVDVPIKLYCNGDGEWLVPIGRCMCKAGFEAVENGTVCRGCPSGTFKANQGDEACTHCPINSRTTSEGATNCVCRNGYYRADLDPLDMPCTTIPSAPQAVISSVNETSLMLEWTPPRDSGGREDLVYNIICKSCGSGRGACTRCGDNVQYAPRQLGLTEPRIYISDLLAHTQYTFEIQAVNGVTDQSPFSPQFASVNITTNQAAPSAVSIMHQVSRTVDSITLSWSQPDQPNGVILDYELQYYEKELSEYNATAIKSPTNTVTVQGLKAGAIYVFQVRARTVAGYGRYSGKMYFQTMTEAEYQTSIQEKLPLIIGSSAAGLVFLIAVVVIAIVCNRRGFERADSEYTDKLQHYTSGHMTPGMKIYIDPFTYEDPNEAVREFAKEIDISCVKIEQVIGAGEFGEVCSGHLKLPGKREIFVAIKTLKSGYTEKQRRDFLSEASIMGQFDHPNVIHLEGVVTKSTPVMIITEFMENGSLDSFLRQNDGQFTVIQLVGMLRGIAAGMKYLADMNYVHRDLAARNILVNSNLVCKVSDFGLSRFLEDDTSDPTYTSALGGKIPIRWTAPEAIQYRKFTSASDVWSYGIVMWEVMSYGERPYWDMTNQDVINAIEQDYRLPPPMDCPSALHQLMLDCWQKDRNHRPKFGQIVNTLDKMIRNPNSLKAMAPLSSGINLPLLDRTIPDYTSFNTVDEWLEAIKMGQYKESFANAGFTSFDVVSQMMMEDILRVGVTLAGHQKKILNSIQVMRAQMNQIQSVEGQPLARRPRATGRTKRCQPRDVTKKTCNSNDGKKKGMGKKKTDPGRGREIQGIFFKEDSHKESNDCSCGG
testMethodNotes: phosphorylation enrichment, bacterial display (enrichment ratio); higher = better substrate or ligand; peptides without Tyr show the background
# respond with the number and nothing more

// phosphorylation enrichment value for EQMLEYMGQLQ [CFAP45_Y289_E291G] : 0.493

Others:
// phosphorylation enrichment value for YRRITYHNWRH [PDE6B_Y556] : 0.362

// phosphorylation enrichment value for ITVCDYTNPCT [MYD88_Y276] : 0.691

// phosphorylation enrichment value for LKDEDYLKDTV [HAUS3_Y582_I586T] : 1.67

* * *

Overview of reported phosphorylation enrichment across a group of sequences:
measuredTarget: EPHB1 (UniProt P54762)
testMethodNotes: phosphorylation enrichment, bacterial display (enrichment ratio); higher = better substrate or ligand; peptides without Tyr show the background
# respond with the number and nothing more

Field: example entries. Status: answers known.
// phosphorylation enrichment value for RAIGHYSATSK [FAM120A_Y328_Y327H] : 0.684

// phosphorylation enrichment value for CTTIHCNFMCN [TP53_Y234_Y234C_YF] : 0.67

// phosphorylation enrichment value for SLIEHYEPSET [PLCD1_Y258_R257H] : 0.541

Others:
// phosphorylation enrichment value for EDDPEYMRLRN [ADD2_Y31] : 0.674

// phosphorylation enrichment value for MCDSHYLESRF [CLK1_Y56_S61F] : 0.447

// phosphorylation enrichment value for CTNPQYLAAGS [RABL3_Y185_R184Q] : 0.487

// phosphorylation enrichment value for KVVNEYVTKGQ [MYH7_Y410_G407V] : 0.358

* * *

System: AncSZ
testMethodNotes: phosphorylation enrichment, bacterial display (enrichment ratio); higher = better substrate or ligand; peptides without Tyr show the background
measuredParameter: phosphorylation enrichment
# respond with the number and nothing more

// phosphorylation enrichment value for DYTEAYNSKIK [CLK1_Y305_P307S] : 0.897

// phosphorylation enrichment value for MTRDIYETDYY [INSR_Y1185] : 2.66

Others:
// phosphorylation enrichment value for AHARMYGVLPW [PLP1_Y207_D203H] : 0.496

// phosphorylation enrichment value for GRLPEYNTPIA [CCDC151_Y542_R545P] : 0.704

// phosphorylation enrichment value for AKKMKYFEGVS [PRKDC_Y682_I680M] : 0.493

// phosphorylation enrichment value for SDGHEYIFVDR [PDGFRB_Y579_P584R_YF] : 0.962

// phosphorylation enrichment value for FRIGPYQPSVP [MATR3_Y784_N787S_YF] : 0.712
